The measurements presented in this section are drawn from paper PMC12554172.

B1: FLAG-tagged FBXO44 FBA domain (FBXO44^FBA) [human] / RGS2^5–16 peptide (RGS2 degron, Met^5–Met^16) [not stated] (parent complex)
chain 1: FYFLRSLHRNLLHNPCAEEGFEFWSLDVNGGDEWKVEDLSRDQRKEFPNDQVKKYFVTSYYTCLKSQVVDLKAEGYWEELMDTTRPDIEVKDWFAARPDCGSKYQLCVQLLSSAHAPLGTFQPDPATIQQKSDAKWREVSHTFSNYPPGVRYIWFQHGGVDTHYWAGWYGPRVTNSSITIGP
chain 2: MFLAVQHDCRPM

- Variants of: B1
- experimental protocol: peptide microarray (PEPperPRINT), α-FLAG fluorescence; three independent experiments with three technical replicates each; parent: 100; read off a plot
Entries and their percent of parent
property measured: percent of parent

{"columns": ["sequence change", "value reported"],
 "data": [
  ["chain 2 M12E", "~110 % Parent"],
  ["chain 2 M12S", "~92 % Parent"],
  ["chain 2 M12T", "~85 % Parent"],
  ["chain 2 M12C", "~130 % Parent"],
  ["chain 2 M12I", "~85 % Parent"],
  ["chain 2 M12Q", "~88 % Parent"],
  ["chain 2 M12W", "~110 % Parent"],
  ["chain 2 M12L", "~90 % Parent"],
  ["chain 2 M12Y", "~120 % Parent"],
  ["chain 2 M12N", "~87 % Parent"],
  ["chain 2 M12D", "~130 % Parent"],
  ["chain 2 M12H", "~90 % Parent"],
  ["chain 2 M12V", "~90 % Parent"],
  ["chain 2 M12P", "~90 % Parent"],
  ["chain 2 M12R", "~200 % Parent"],
  ["chain 2 M12A", "~67 % Parent"],
  ["chain 2 M12G", "~72 % Parent"],
  ["chain 2 M12K", "~140 % Parent"],
  ["chain 2 M12F", "~100 % Parent"]
]}
